Protocol Details: in vitro
Parameters: Viability of infected HeLa host cells, resazurin conversion, bulk resorufin fluorescence relative to DMSO
Measurement Parameters: human, hela cells; bulk resorufin, mean of 2
Observation Type: viability at 28.5 h, 10 µM (%)
Value expressed in %; do not type the unit.

Q: Given the molecule N=C(N)SCc1csc(-c2ccc(Br)cc2)n1 [CBK017064C] , what is its reported viability at 28.5 h, 10 µM?
A: 91.1

Q: Given the molecule "CC(=O)NC[C@H]1CN(c2ccc3c(c2)CCN(C(C)=O)CC3)C(=O)O1" , what is its reported viability at 28.5 h, 10 µM?
A: 112

Q: Given the molecule "CC(=O)NC[C@H]1CN(c2ccc3c(c2)CCN(C(=O)Cc2ccccc2)CC3)C(=O)O1" , what is its reported viability at 28.5 h, 10 µM?
A: 92.1

Q: Given the molecule "Cc1cc(NS(=O)(=O)c2ccc(NC(=S)NC(=O)C(C)(C)C)cc2)no1" , what is its reported viability at 28.5 h, 10 µM?
A: 99.1

Q: Given the molecule "COc1nccnc1NS(=O)(=O)c1ccc(Nc2c([N+](=O)[O-])cc([N+](=O)[O-])c3nonc23)cc1" , what is its reported viability at 28.5 h, 10 µM?
A: 94.2
